# Tested on: MS2 coat protein
# assay: apparent KD of MS2 coat protein; designed switch direction (-1 OFF switch, 1 ON switch): -1; higher = weaker reporter binding
# recorded_conditions: input ligand: none
# apparent KD of MS2 coat protein listing for each entry below
Please reply with the bare figure in µM and do not write the unit itself.

A selection of reference data follows.
sequence_content	apparent KD of MS2 coat protein [µM]
CGGGCGCGAGGAUAUACAUGAGGAUCACCCAUGUAACGGCGAGCAAUGUUUGUUGCGUGUAGAAGGUGUGUUUG [-20.1, -18.7 kcal, A 27%] (Eterna round: R97, puzzle: Exclusion 3)	0.155
CCUCUACAUGAGGAUCACCCAUGUGAGGAUAUGCGAGGCGCACUCGAUGAGCGCGCCGGUAGAAGGCAUGUGGU [Raraveries] (Eterna round: R96, puzzle: Exclusion 1)	0.0419

As a next step, examine the sequence that follows.
*Q* For the sequence shown here, UUAUUAUAUGAAGGAUAUACUUAACAUGAGGAUCACCCAUGUGGUGUUGUGAGUGAGUGAGUUUAGUAGAAGGUCAAUGAUUUU [JMF's solution 72] (Eterna round: R96, puzzle: Exclusion NG 2) , give the reported apparent KD of MS2 coat protein.
*A* 0.428

---

# Tested on: K4 kissing-loop RNA reporter
# assay: apparent KD of K4 kissing-loop reporter; higher = weaker reporter binding
# recorded_conditions: Eterna round: R107; input ligand: arginine 13.2 mM
# apparent KD of K4 kissing-loop reporter listing for each entry below
Please reply with the bare figure in µM and do not write the unit itself.

A selection of reference data follows.
sequence_content	quantity_unit	apparent KD of K4 kissing-loop reporter
AAUUAAUGUAUAGAUUAUAUACAUUAAUCAGAGGAUAUGCAUUGUUGCAGAAGGCUGAAUGCAGUGAUGUUGCAAUGGAAAUUUA [JR_SSFMNA_Sub004]	µM	0.201
CGAGUGAUGUUCGUUUAUUACUCUGUUUGACAGGAUAUGCGGAAACGCAGAAGGGUCACCUUUGAGUUAGACGGAGUUAUUUUUU [Ex FMN A 22]	µM	0.359
CCUAUCUCAUACGAUACCAGUCGUCGAGUGAUGUUCGAUUAAAUAUAUUUGCCAAAUAACGACCCUUGGCAGCGUAUGGGAUAGG [Ex Theophylline B K4 17]	µM	0.328
UGGUUAAGCAGUGAUGUUGCAAGUAAUGAUACCAGUUAAGAAGAGAACCCUUGGCAGCAUAAAGUGCGCUCUGAUGAGUGUGCUU [whbob_SS_Theo_A_w54]	µM	0.218
AAGACUGCAGGAAGGAGCGGCGGACGGAGUGAUGUUCCGGCUAGUGAUGUUAGCAAACACCGCCAGGUAGGUCGCCUGUUGCUCU [Same State Arginine B GF7]	µM	0.116
AAUAAAAGAUGUUUAGGAAAGCAAAUGGAAGGAGCGUGCGAAAGCACAGGUAGGUCGCCAGUGAUGUUGGCACCUGAGCAUCAAA [#SwitchBubble 18 #K4Late]	µM	0.285
UUGUUUGGUUGAGAGGUUGGGCGAGAUGAUACCAGUAGAGAAGAGUACCCUUGGCAGCAUAGGAAAGAUAUAGUGAUGUUGUAUA [SSTheophA.Q]	µM	0.313
AAAGAGUCACUCGAAGCUAUCGAAGAUAGGCGAGGACCGGUACGGCCGCCACUCGGAGUGAUGUUCCGAAGACUGUAAAAUAAAA [MatMod 12 - Jieux - Exclusion - Tryptophan A]	µM	0.24
GCGCGUGUUAAAGGAUAUAGCAGGUGAUACAAGAAAGUGAGUGAUGUUUAUGUAGAUGAUGAUAUGUUAGAAGGUUAACACGCGC [abcdefghijklmnopqr]	µM	0.635
AUCGAUAUCAGAGGAUAUGCUUAAUUGAUUUAUUAUUAUUUAUUAUGCAGUGAUGUUGCAUUUUUUGCAGAAGGCUGAUUUCGAA [JR_SSFMNB_Sub022]	µM	0.15

*Q* Param readout = apparent KD of K4 kissing-loop reporter; param system = K4 kissing-loop RNA reporter; param query = GAAACGUUGCGGACUAUCGCAUAAAGUCACCGAGGACCGGUACGGCCGCCACUCGCCAGUGAUGUUGGCGUGUUUGCGCGCUGUG [Titebebi] ; response: value
*A* 0.094

*Q* Param readout = apparent KD of K4 kissing-loop reporter; param system = K4 kissing-loop RNA reporter; param query = GCUCAGGAGUGAUGUUCCUAGUGAUGUUAACGAGGACCGGUACGGCCGCCACUCGAUACGGCCGGACCGUAGGAUAAACUAGAGC [Same State - Tryptophan A (Freestyle 10)] ; response: value;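 note: bound reporter read as fluorescence of individual clusters on recovered sequencing chips by microscopy, with normalized cluster intensities fitted with a binding model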
*A* 0.238

---

# Test system: MS2 coat protein
# assay: apparent KD of MS2 coat protein; designed switch direction (-1 OFF switch, 1 ON switch): -1; higher = weaker reporter binding
# recorded_conditions: input ligand: none
Decide by apparent KD of MS2 coat protein: equal to or exceeding 30 nM means fulfilled, less means not fulfilled.

sequence_content	subject_of_test	class
UUUAGUUGGUAAGGAUAUCCUACAUUGUUCUGGCCCGGGCAUGCUACAUGAGGAUCACCCAUGUGGGAGAAGGUGCGUCAUCGC [Design 19] (Eterna round: R96, puzzle: Exclusion NG 2)	MS2 coat protein	fulfilled
GGCAUGUAAGGAUAUGCCACCGAGUGCUUUGCGCUCGGUAAGCAGAAGGUACAUGAGGAUCACCCAUGUGAUAA [jl-ex4-4.55 ViennaUCT mod] (Eterna round: R97, puzzle: Exclusion 4)	MS2 coat protein	fulfilled

*Q* Quick check, apparent KD of MS2 coat protein >= 30 nM? AACAAUACUUACAUAAUAAGGCUUUUCAGGUCGGGUACCACAUGAGGAUCACCCAUGUAGCAGCCUAGGGAAUGAUA [JR_Sensorv2_tov2_Sub1233] (Eterna round: R96, puzzle: Sensor v2, turn-off variant 2)
*A* fulfilled

*Q* Quick check, apparent KD of MS2 coat protein >= 30 nM? GUCAGACGAGGAUAUGAUAAUUAAUACAUGAGGAUCACCCAUGUAAUACUGAUCCAUGGAUCAGAAGGCGUCUGAC [E5/4-A4] (Eterna round: R97, puzzle: Exclusion 5)
*A* not fulfilled

*Q* Quick check, apparent KD of MS2 coat protein >= 30 nM? GCUUGUGGGCAAGGAUAUCCUACGUUGUUCUGGUUCGUGUCUGUCACAUGAGGAUCACCCAUGUGGGAGAAGGUGCAUUUGGGU [Design 59] (Eterna round: R96, puzzle: Exclusion NG 2)
*A* not fulfilled

---

# Test system: MS2 coat protein
# assay: apparent KD of MS2 coat protein; designed switch direction (-1 OFF switch, 1 ON switch): -1; higher = weaker reporter binding
# recorded_conditions: input ligand: FMN 200 uM
measure_name: apparent KD of MS2 coat protein (nM)
Please reply with the bare figure in nM and do not write the unit itself.

A selection of reference data follows.
sequence_content	quantity_unit	apparent KD of MS2 coat protein
AUGCUCCGUGUAGGAUAUCGCCGCAUCACUCGGCGAGAAGGACAUGAGGAUCACCCAUGUAUGUUAUUAUCACGUGUGGCGCGC [Design 44] (Eterna round: R96, puzzle: Exclusion NG 1)	nM	52.3
GUGUAACAUGAGGAUCACCCAUGUCAGGAUAUGCGAAUUUCAUCAAAAGAUGAAAUUUGCAGAAGGGACUGUAC [Omei Ex1 A24] (Eterna round: R97, puzzle: Exclusion 1)	nM	99.2
GUCACAUGGACAUAGGAUCACAUGAGGAUCACCCAUGUGACUAACAAGCUUUUUGUUCGUCUUAUGUCCAUGUGAAA [Stov1/15-B2] (Eterna round: R97, puzzle: Sensor, turn-off variant 1)	nM	15.3
UACAUGAGGAUCACCCAUGUUUUGUCGUGUAUGGUAUUUAUCUAGGAUAUCAAGUUAUGUAUUUAUGAGAAGGAGAAUAUUAAU [JMF's solution 31] (Eterna round: R96, puzzle: Exclusion NG 3)	nM	40.4
AAAUAGCAAGUUUGAUCCUACAUGAGGAUCACCCAUGUGUUCGUCUUAUUUGAAGACAACACAAAAGUGUUGUCUUA [Omei Mir OFFv1 B1] (Eterna round: R97, puzzle: Sensor, turn-off variant 1)	nM	1100
CCCUCACAUGAGGAUCACCCAUGUCAGGAUAUCUCAGUACGUCCACACGGACGCACCAAGAGAAGGGACAAAGC [Veara] (Eterna round: R97, puzzle: Exclusion 1)	nM	32.2
GACAUACAUGAGGAUCACCCAUGUAAGGAUAUACGCAGUAGACUCCGAGGGACCUGAAGUAGAAGGUACAGGGU [Eternabot (L2) Solution 72] (Eterna round: R97, puzzle: Exclusion 1)	nM	103
UCACGGGACUGAGGAUAUACAUGAAUUAUUUUUGUAGAAGGCAGAAUGUUAGUUUAUUCACUAUACAUGAGGAUCACCCAUGUU [JR_ExcNG1_Sub021] (Eterna round: R96, puzzle: Exclusion NG 1)	nM	21.5
UGGACAUGAGGAUCACCCAUGUAAUACACACCUCAGCCACGAGAGGAUAUGCCCGGAGGACCGGCGCAGAAGGCUCCCAAGAGA [Eternabot solution 10] (Eterna round: R96, puzzle: Exclusion NG 3)	nM	83.8
AUCCUGAGGCUUUGCUUUAGGCGUACAUGAGGAUCACCCAUGUAGGAUAUGGUAGGCUUUGCUUACCAGAAGGACAUUAUGAUC [JL EXNG3 1.19] (Eterna round: R96, puzzle: Exclusion NG 3)	nM	243

As a next step, examine the sequence that follows.
*Q* For the sequence shown here, AACCUGAGGCAAAGCUUUAGGUGUACAUGAGGAUCACCCAUGUAGGAUAUGGUAGGCAAAGCUUACCAGAAGGACAUUAUGAUA [Mat - Exclusion NG 3 - Mod of JL - D52] (Eterna round: R96, puzzle: Exclusion NG 3) , give the reported apparent KD of MS2 coat protein.
*A* 66.9

Taken from the supplement of paper PMC9170038.
